Source of measurements: patent US20040235792A1

system-tested: Human α-thrombin (Homo sapiens, UniProt P00734)
Construct: Human α-thrombin was obtained from J. Freysinnet (Strasbourg); purchased J. Freysinnet (Strasbourg)
assay-procedure: Score assay, Thr (chromogenic substrate S-2238)
Format: biochemical
assay-setup: Table 1 comparators; Score = fold increase in inhibitor concentration / concentration of inhibitor used (in mM); single concentration, 37° C., pH 7.4
property-name: Thr Score

>>> value_measured("Br.COC(=O)c1cccc(CSC(=N)N)c1")
5.3
>>> value_measured("Br.N=C(N)NC(=N)Nc1cc(F)cc(F)c1Br")
0
>>> value_measured("Br.CC(C)c1ccc(NC(=N)NC(=N)N)c(Br)c1")
7.7
>>> value_measured("Br.N=C(N)NC(=N)Nc1ccc(I)cc1")
0
>>> value_measured("Br.N=C(N)SCc1cccc(I)c1")
10
>>> value_measured("Br.Cc1ccc(I)cc1NC(=N)NC(=N)N")
0

* * *

Here, each record is paired with measured Try (score) data.
system-tested: Try (trypsin) (Homo sapiens, UniProt P07477)
assay-procedure: Score assay, Try (chromogenic substrate S-2288)
Assay type: biochemical
Design: key: score = fold increase in inhibitor conc / inhibitor conc used (mM)
assay-setup: Table 3, substrate 25 μM
property-name: Try (score)

>>> value_measured("COc1ccc(CSC(=N)N)cc1B1OC(C)(C)C(C)(C)O1 [compound 973]")
167
>>> value_measured("N=C(N)SCc1ccc(B(O)O)cc1 [compound 866]")
440
>>> value_measured("N=C(N)SCc1cc(CSC(=N)N)cc(B(O)O)c1 [compound 968]")
640
>>> value_measured("CC1(C)OB(c2cccc(CNC(=N)N)c2)OC1(C)C [compound 1006]")
37
>>> value_measured("CC1(C)OB(c2cccc(CSC(=N)N)c2)OC1(C)C [compound 852]")
624

* * *

Here, each record is paired with measured UK (score) data.
system-tested: UniProt P00749
assay-procedure: Score assay, UK (chromogenic substrate S-2444)
Assay type: biochemical
Set-up: key: score = fold increase in inhibitor conc / inhibitor conc used (mM)
assay-setup: Table 3, substrate 125 μM
property-name: UK (score)

>>> value_measured("N=C(N)SCc1cc(B(O)O)ccc1Oc1ccccc1")
583
>>> value_measured("N=C(N)SCc1cccc(B(O)O)c1")
776
>>> value_measured("CC1(C)OB(c2cccc(CSC(=N)N)c2)OC1(C)C")
792
>>> value_measured("CC1(C)OB(c2ccccc2CSC(=N)N)OC1(C)C")
26
>>> value_measured("COc1ccc(CSC(=N)N)cc1B1OC(C)(C)C(C)(C)O1")
1210
>>> value_measured("CC(SC(=N)N)c1cccc(B2OC(C)(C)C(C)(C)O2)c1 (stereo not shown)")
934
>>> value_measured("CN=C(N)SCc1cccc(B(O)O)c1")
27
>>> value_measured("CC(=O)NNC(=N)SCc1cccc(B(O)O)c1")
4
>>> value_measured("N=C(N)SCc1cc(CSC(=N)N)cc(B(O)O)c1")
880
>>> value_measured("N=C(N)SCc1cccc([N+](=O)[O-])c1")
3

* * *

system-tested: Xa (factor X activated) (Homo sapiens)
Sequence (P00742 235-488 limits assumed): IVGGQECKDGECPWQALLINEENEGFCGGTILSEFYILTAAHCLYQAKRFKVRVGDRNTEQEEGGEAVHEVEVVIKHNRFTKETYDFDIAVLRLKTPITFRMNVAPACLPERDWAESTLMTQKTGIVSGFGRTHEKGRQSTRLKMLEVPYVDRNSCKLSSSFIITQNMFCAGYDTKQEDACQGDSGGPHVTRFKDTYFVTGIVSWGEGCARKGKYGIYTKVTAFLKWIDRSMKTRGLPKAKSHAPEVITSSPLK
Sequence (P00742 41-179 partner limits assumed): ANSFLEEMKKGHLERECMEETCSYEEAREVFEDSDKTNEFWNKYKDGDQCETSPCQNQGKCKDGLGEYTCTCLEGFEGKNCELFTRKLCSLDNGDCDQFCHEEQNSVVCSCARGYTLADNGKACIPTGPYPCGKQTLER
assay-procedure: Score assay, Xa (chromogenic substrate S-2765)
Type: biochemical
Design: key: score = fold increase in inhibitor conc / inhibitor conc used (mM)
assay-setup: Table 3, substrate 22 μM
Xa (score) under 200 gets criterion met, anything at or over 200 gets criterion not met.

>>> class_label("N=C(N)SCc1ccccc1B(O)O")
"criterion met"
>>> class_label("CN=C(N)SCc1cccc(B(O)O)c1")
"criterion met"
>>> class_label("CC1(C)OB(c2ccccc2CSC(=N)N)OC1(C)C")
"criterion met"
>>> class_label("N=C(N)SCc1cc(B(O)O)ccc1Oc1ccccc1")
"criterion not met"
>>> class_label("CC(=O)NNC(=N)SCc1cccc(B(O)O)c1")
"criterion met"
>>> class_label("CC1(C)OB(c2cccc(CSC(=N)N)c2)OC1(C)C")
"criterion not met"
>>> class_label("CC(SC(=N)N)c1cccc(B2OC(C)(C)C(C)(C)O2)c1 (centres unmarked)")
"criterion not met"
>>> class_label("N=C(N)SCc1cc(CSC(=N)N)cc(B(O)O)c1")
"criterion not met"
>>> class_label("N=C(N)SCc1cccc(B(O)O)c1")
"criterion not met"
>>> class_label("N=C(N)SCc1ccc(B(O)O)cc1")
"criterion met"
>>> class_label("COc1ccc(CSC(=N)N)cc1B1OC(C)(C)C(C)(C)O1")
"criterion met"
>>> class_label("CC1(C)OB(c2cccc(CNC(=N)N)c2)OC1(C)C")
"criterion met"
>>> class_label("Cc1cc(CSC(=N)N)cc(B(O)O)c1")
"criterion not met"
>>> class_label("N=C(N)SCc1cccc([N+](=O)[O-])c1")
"criterion met"

* * *

system-tested: Human α-thrombin (Homo sapiens, UniProt P00734)
Construct: Human α-thrombin was obtained from J. Freysinnet (Strasbourg); purchased J. Freysinnet (Strasbourg)
assay-procedure: Score assay, Thr (chromogenic substrate S-2238)
Type: biochemical
assay-setup: Table 3; Score = fold increase in inhibitor concentration / concentration of inhibitor used (in mM); 37° C., pH 7.4
Here, each record is paired with measured Thr Score data.
property-name: Thr Score

>>> value_measured("N=C(N)SCc1cccc(B(O)O)c1")
421
>>> value_measured("CC1(C)OB(c2ccccc2CSC(=N)N)OC1(C)C")
70
>>> value_measured("CC1(C)OB(c2cccc(CSC(=N)N)c2)OC1(C)C")
326
>>> value_measured("CC(=O)NNC(=N)SCc1cccc(B(O)O)c1")
2.0
>>> value_measured("CC1(C)OB(c2cccc(CNC(=N)N)c2)OC1(C)C")
106
>>> value_measured("CC(C)(C)OC(=O)N=C(N)N(Cc1cccc(B2OC(C)(C)C(C)(C)O2)c1)C(=O)OC(C)(C)C")
12
>>> value_measured("N=C(N)SCc1cc(CSC(=N)N)cc(B(O)O)c1")
1215
>>> value_measured("N=C(N)SCc1cc(B(O)O)ccc1Oc1ccccc1")
333
>>> value_measured("CC(C)Cc1ccc(Oc2ccc(B3OC(C)(C)C(C)(C)O3)cc2CSC(=N)N)cc1")
1959

* * *

Here, each record is paired with measured Try (score) data.
system-tested: UniProt P07477
assay-procedure: Score assay, Try (chromogenic substrate S-2288)
Assay type: biochemical
Design: key: score = fold increase in inhibitor conc / inhibitor conc used (mM)
assay-setup: Table 3, substrate 25 μM
property-name: Try (score)

>>> value_measured("N=C(N)SCc1cccc([N+](=O)[O-])c1")
4
>>> value_measured("CC1(C)OB(c2ccccc2CSC(=N)N)OC1(C)C")
7
>>> value_measured("Cc1cc(CSC(=N)N)cc(B(O)O)c1")
3
>>> value_measured("CN=C(N)SCc1cccc(B(O)O)c1")
21
>>> value_measured("CC(=O)NNC(=N)SCc1cccc(B(O)O)c1")
2
>>> value_measured("N=C(N)SCc1cccc(B(O)O)c1")
868

* * *

system-tested: Try (trypsin) (Homo sapiens, UniProt P07477)
assay-procedure: Score assay, Try (chromogenic substrate S-2288)
Assay type: biochemical
Design: key: score = fold increase in inhibitor conc / inhibitor conc used (mM)
assay-setup: Table 3, substrate 25 μM
Here, each record is paired with measured Try (score) data.
property-name: Try (score)

>>> value_measured("N=C(N)SCc1cc(B(O)O)ccc1Oc1ccccc1")
583
>>> value_measured("CC(SC(=N)N)c1cccc(B2OC(C)(C)C(C)(C)O2)c1 (stereo not drawn)")
324
>>> value_measured("N=C(N)SCc1ccccc1B(O)O")
7

* * *

Here, each record is paired with measured FIXa score data.
system-tested: FIXa (Homo sapiens)
Construct: FIXa was obtained from Haematologics; purchased Haematologics
Sequence (P00740 227-461 limits assumed): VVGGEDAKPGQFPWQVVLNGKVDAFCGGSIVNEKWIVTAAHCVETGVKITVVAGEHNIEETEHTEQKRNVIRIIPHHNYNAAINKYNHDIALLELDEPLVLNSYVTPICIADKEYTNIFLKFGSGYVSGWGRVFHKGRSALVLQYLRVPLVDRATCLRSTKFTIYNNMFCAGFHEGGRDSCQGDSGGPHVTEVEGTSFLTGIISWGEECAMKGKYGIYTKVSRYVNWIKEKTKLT
Sequence (P00740 47-191 partner limits assumed): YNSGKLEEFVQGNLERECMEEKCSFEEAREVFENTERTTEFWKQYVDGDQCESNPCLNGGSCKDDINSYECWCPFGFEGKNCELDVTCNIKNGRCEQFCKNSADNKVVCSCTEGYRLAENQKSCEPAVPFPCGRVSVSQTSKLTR
assay-procedure: Score assay, FIXa (chromogenic substrate Pefachrome IXa)
Type: biochemical
Parameters: key: fold increase in inhibitor conc / inhibitor conc used (mM)
assay-setup: Table 3; Score = fold increase in inhibitor concentration / concentration of inhibitor used (in mM); 37° C., pH 7.4
property-name: FIXa score

>>> value_measured("CC1(C)OB(c2ccc(Oc3ccc(Oc4ccccc4)cc3)c(CSC(=N)N)c2)OC1(C)C")
626
>>> value_measured("N=C(N)SCc1cc(B(O)O)ccc1Oc1ccc(C(=O)c2ccccc2)cc1")
746
>>> value_measured("CN=C(N)SCc1cccc(B(O)O)c1")
19
>>> value_measured("CC1(C)OB(c2ccc(Oc3ccccc3)c(CSC(=N)N)c2)OC1(C)C")
291
>>> value_measured("N#Cc1cccc(Oc2ccc(B(O)O)cc2CSC(=N)N)c1")
229
>>> value_measured("COc1cccc(Oc2ccc(B3OC(C)(C)C(C)(C)O3)cc2CSC(=N)N)c1")
97
>>> value_measured("N=C(N)SCc1cc(CSC(=N)N)cc(B(O)O)c1")
59.6
>>> value_measured("CC1(C)OB(c2cccc(CSC(=N)N)c2)OC1(C)C")
76
>>> value_measured("COc1ccc(CSC(=N)N)cc1B1OC(C)(C)C(C)(C)O1")
32
>>> value_measured("N=C(N)SCc1cccc([N+](=O)[O-])c1")
2
>>> value_measured("N=C(N)SCc1ccccc1B(O)O")
5.4
>>> value_measured("CC1(C)OB(c2ccc(Oc3cccc(Cl)c3)c(CSC(=N)N)c2)OC1(C)C")
157
>>> value_measured("N=C(N)SCc1cc(B(O)O)ccc1Oc1ccc2c(c1)CCCC2")
346
>>> value_measured("CC1(C)OB(c2cccc(CNC(=N)N)c2)OC1(C)C")
46
>>> value_measured("Cc1cc(CSC(=N)N)cc(B(O)O)c1")
205
>>> value_measured("CC(SC(=N)N)c1cccc(B2OC(C)(C)C(C)(C)O2)c1 (stereo not shown)")
64
>>> value_measured("CC1(C)OB(c2ccccc2CSC(=N)N)OC1(C)C")
7
>>> value_measured("N=C(N)SCc1ccc(B(O)O)cc1")
6.4
>>> value_measured("CC(C)(C)OC(=O)N=C(N)N(Cc1cccc(B2OC(C)(C)C(C)(C)O2)c1)C(=O)OC(C)(C)C")
80
